Provide the reported MIC90 of each item.
# System: Acinetobacter baumannii
# ASSAY_OVERVIEW: Antimicrobial activity against Acinetobacter baumannii by broth microdilution method
# Format: functional

Answered cases to consult:
# MOL, MIC90
records = [
    ("C[C@H]1[C@H](NC(=O)/C(=N\\OC(C)(C)C(=O)O)c2csc(N)n2)C(=O)N1C(=O)NS(=O)(=O)n1nc(-c2cc(=O)c(O)c[nH]2)n(C[C@@H](O)CO)c1=O", "> 128 µg/mL"),
    ("C[C@H]1[C@H](NC(=O)/C(=N\\OC(C)(C)C(=O)O)c2csc(N)n2)C(=O)N1S(=O)(=O)O", "> 512 µg/mL"),
]

Provide the reported MIC90 of each entry below, same order.
1. C[C@H]1[C@H](NC(=O)/C(=N\OC(C)(C)C(=O)O)c2csc(N)n2)C(=O)N1C(=O)NS(=O)(=O)N1C[C@@H](NC(=O)NCc2cc(=O)c(O)cn2O)CC1=O
2. C[C@H]1[C@H](NC(=O)/C(=N\OC(C)(C)C(=O)O)c2csc(N)n2)C(=O)N1C(=O)NS(=O)(=O)N1C[C@@H](NC(=O)c2cc(=O)c(O)c[nH]2)CC1=O
3. C[C@H]1[C@H](NC(=O)/C(=N\OC(C)(C)C(=O)O)c2csc(N)n2)C(=O)N1C(=O)NS(=O)(=O)N1CCN(C(=O)c2cc(=O)c(O)c[nH]2)N(C)C1=O

["> 128 µg/mL", "> 64 µg/mL", "> 128 µg/mL"]
